# measured-target: T1, monkey MSLN on HEK293T-monkey MSLN recombinant cells (monkey)
# T1 construct: Full-length precursor as transfected; processing on the cell is not described; also called HEK293-monkey MSLN
# T1 chain: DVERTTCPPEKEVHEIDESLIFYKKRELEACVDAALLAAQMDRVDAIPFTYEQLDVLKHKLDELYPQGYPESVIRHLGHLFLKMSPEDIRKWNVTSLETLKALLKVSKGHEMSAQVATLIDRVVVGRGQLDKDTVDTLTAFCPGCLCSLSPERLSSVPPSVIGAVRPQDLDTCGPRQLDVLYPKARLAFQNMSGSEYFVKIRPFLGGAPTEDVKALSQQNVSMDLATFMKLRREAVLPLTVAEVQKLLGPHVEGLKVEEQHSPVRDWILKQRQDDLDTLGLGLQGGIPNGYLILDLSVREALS
# assay-summary: FACS, HEK293T-monkey MSLN cells
Items are presented alongside their recorded Maximum_MFI.
# output: numeric value plus its unit

Query: # get_value(readout='Maximum_MFI', item= F3.80.22-H6 (scFv, not shown: small tags and cut ends, also called S009-F3.80.22 humanized antibody VL1a + VH2) scFv: DIVMTQTPLSLPVTPGEPASISCRSSQSLEHNDGNTYLHWFLQKPGQSPQLLIYKVSNRFSGVPDRFSGSGSGTDFTLKISRVEAEDVGVYYCSQSTHVPFTFGQGTKLEIKGGGGSGGGGSGGGGSEVQLVQSGAEVKKPGATVKISCKASGYTFTDYEIHWVQQAPGKGLEWMGAFDPEIGGSAYNQKFKDRVTITADKSTSTAYMELSSLRSEDTAVYYCTDYYGSSSGYFDVWGQGTTVTVSS )
Response: 338 MFI

More entries:
Query: # get_value(readout='Maximum_MFI', item= F3.80.22-H8 (scFv, not shown: small tags and cut ends, also called S009-F3.80.22 humanized antibody VL1a + VH4) scFv: DIVMTQTPLSLPVTPGEPASISCRSSQSLEHNDGNTYLHWFLQKPGQSPQLLIYKVSNRFSGVPDRFSGSGSGTDFTLKISRVEAEDVGVYYCSQSTHVPFTFGQGTKLEIKGGGGSGGGGSGGGGSEVQLVQSGAEVKKPGATVKISCKASGYTFTDYEIHWVQQAPGKGLEWMGAFDPEIGGSAYNQKFKDRVTITADKSSSTAYMELSSLRSEDTAVYYCTDYYGSSSGYFDVWGTGTTVTVSS )
Response: 317 MFI
